This collection of values is drawn from patent US8163756B2.

STUDY SYSTEM: phosphorylated p-38-alpha kinase (Homo sapiens, UniProt Q16539)
Sequence (Q16539 1-360 isoform Q16539-2): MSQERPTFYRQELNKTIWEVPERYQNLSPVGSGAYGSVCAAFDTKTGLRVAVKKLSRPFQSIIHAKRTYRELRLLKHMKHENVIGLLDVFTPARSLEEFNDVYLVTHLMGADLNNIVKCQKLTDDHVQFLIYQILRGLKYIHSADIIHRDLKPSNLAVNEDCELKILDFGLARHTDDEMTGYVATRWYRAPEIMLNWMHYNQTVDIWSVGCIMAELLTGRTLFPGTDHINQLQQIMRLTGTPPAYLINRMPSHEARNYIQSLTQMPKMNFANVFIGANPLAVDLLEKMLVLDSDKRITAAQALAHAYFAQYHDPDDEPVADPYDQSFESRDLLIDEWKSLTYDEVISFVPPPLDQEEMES
PROTOCOL SUMMARY: P-38 alpha kinase assay P1 (coupled spectrophotometric, 2 h pre-incubation)
Format: biochemical
STATED CONDITIONS: method P1 (2 h pre-incubation); read-out: P-38 Data
Label key: Fulfilled means IC50 under 40 nM; Not fulfilled means IC50 of 40 nM or more.

These recorded examples may help you get a feel for the data.
| MOLECULE | CLASSIFICATION |
| --- | --- |
| O=C(O)Cc1ccc(-n2nc(-c3cccs3)cc2NC(=O)N[C@H]2CCc3ccccc32)cc1 | Fulfilled |
| CC(C)(C)c1cc(NC(=O)Nc2cccc(Cl)c2Cl)n(-c2cc(CN)c3ccccc3c2)n1 | Not fulfilled |
| CC(C)(C)c1cc(NC(=O)Nc2cccc(Cl)c2Cl)n(-c2ccc3c(c2)CCCN3C(=N)N)n1 | Not fulfilled |

Query: Report whether reported IC50 is lower than 40 nM (strictly) for CC(C)(C)c1cc(NC(=O)Nc2cccc(Cl)c2Cl)n(-c2ccc3c(c2)CN[C@H](C(=O)O)C3)n1
Result: Not fulfilled

Query: Follow-up entry: CNC(=O)Cc1cccc(-n2nc(C(C)(C)C)cc2NC(=O)Nc2cccc(F)c2F)c1
Result: Not fulfilled

Query: Follow-up entry: CC(C)(C)c1cc(NC(=O)Nc2cccc(Cl)c2Cl)n(-c2ccc3c(c2)CC(C(=O)O)NC3)n1 (stereo not shown)
Result: Fulfilled

----------
STUDY SYSTEM: phosphorylated p-38-alpha kinase (Homo sapiens, UniProt Q16539)
PROTOCOL SUMMARY: P-38 alpha kinase assay P1 (coupled spectrophotometric, 2 h pre-incubation)
Format: biochemical
STATED CONDITIONS: method P1 (2 h pre-incubation); read-out: P-38 Data
pIC50: −log10 of the molar value.
Outcome: t for pIC50 of at least 7; f for anything lower.

Query: Please indicate if the recorded pIC50 for CC(C)(C)c1cc(NC(=O)Nc2cccc(Cl)c2Cl)n(-c2ccc3c(c2)CN[C@H](C(N)=O)C3)n1 meets or exceeds 7.
Result: t

Query: Follow-up entry: O=C(Cc1cccc(-n2nc(-c3cccs3)cc2NC(=O)N[C@H]2CCc3ccccc32)c1)NCC(O)CO (stereo partly drawn)
Result: t

Query: Follow-up entry: O=C(Cc1cccc(-n2nc(-c3ccccc3F)cc2NC(=O)Nc2ccc(F)c(F)c2F)c1)NCC(O)CO (stereo not drawn)
Result: t

Query: Follow-up entry: CC(C)(C)c1cc(NC(=O)Nc2cccc(Cl)c2Cl)n(-c2cc(CNC(=O)NS(C)(=O)=O)c3ccccc3c2)n1
Result: t

Query: Follow-up entry: O=C(O)Cc1cccc(-n2nc(-c3ccccc3F)cc2NC(=O)Nc2ccc(F)c(F)c2F)c1
Result: t

Query: Follow-up entry: COc1ccc(-n2nc(C(C)(C)C)cc2NC(=O)Nc2ccccc2F)cc1
Result: f

Query: Follow-up entry: CC(C)(C)c1cc(NC(=O)Nc2cccc(Cl)c2Cl)n(-c2cccc(CC(=O)N3CCC[C@H]3CO)c2)n1
Result: t

Query: Follow-up entry: Cn1c(=O)c(-c2cccc(NC(=O)Nc3cc(C(C)(C)C)nn3-c3ccc4c(c3)CCC(=O)N4)c2)cc2cncnc21
Result: t

Query: Follow-up entry: CC(C)(C)c1cc(NC(=O)Nc2cccc(Cl)c2Cl)n(-c2ccc(CCO)cc2)n1
Result: t

Query: Follow-up entry: CC(C)(C)c1cc(NC(=O)NC2CCCCC2)n(-c2cc(CC(N)=O)c3ccccc3c2)n1
Result: f

----------
STUDY SYSTEM: Abl kinase (Homo sapiens, UniProt P00519)
Sequence (P00519 229-512): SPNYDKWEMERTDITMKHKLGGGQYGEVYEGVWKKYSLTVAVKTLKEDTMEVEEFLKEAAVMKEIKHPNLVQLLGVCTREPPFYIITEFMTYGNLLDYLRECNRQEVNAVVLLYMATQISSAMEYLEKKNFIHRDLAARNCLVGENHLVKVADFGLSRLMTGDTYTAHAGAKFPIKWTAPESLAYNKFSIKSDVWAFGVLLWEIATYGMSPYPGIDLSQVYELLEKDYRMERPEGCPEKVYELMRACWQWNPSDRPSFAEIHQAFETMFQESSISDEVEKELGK
PROTOCOL SUMMARY: Abl kinase assay A1 (pyruvate kinase/lactate dehydrogenase coupled, spectrophotometric)
Format: biochemical
STATED CONDITIONS: Method A1; read-out: Abl Data (IC50)
Method: IC50 values were calculated from a series of percent inhibition values determined at a range of inhibitor concentrations using software routines as implemented in the GraphPad Prism software package.
Could you please report measured pIC50 for the items listed next?
Give bare numbers, as −log10 of the molar value.

Before answering, review these 5 worked examples.
| SMILES REPRESENTATION | pIC50 |
| --- | --- |
| CC(C)(C)c1cc(NC(=O)Nc2cccc(Br)c2)n(-c2cccc(C#N)c2)n1 | 5.70 |
| CC(C)(C)c1cc(NC(=O)Nc2cccc(Cl)c2Cl)n(-c2cc(CCN)c3ccccc3c2)n1 | 7.09 |
| CC(C)(C)c1cc(NC(=O)Nc2cccc(Cl)c2Cl)n(-c2ccc3c(c2)CN(C(=N)N)CC3)n1 | 6.64 |
| COc1ccc(-n2nc(C(C)(C)C)cc2NC(=O)Nc2cccc(Cl)c2Cl)cc1 | 6.08 |
| CC(C)(C)c1cc(NC(=O)Nc2ccc(F)cc2)n(-c2cc(CC(N)=O)c3ccccc3c2)n1 | 6.41 |

Query: I have this compound here, CC(C)(C)c1cc(NC(=O)Nc2cccc(Cl)c2Cl)n(-c2cccc(C(N)=O)c2)n1 , and I need its recorded pIC50.
Result: 5.70

----------
STUDY SYSTEM: phosphorylated p-38-alpha kinase (Homo sapiens, UniProt Q16539)
PROTOCOL SUMMARY: P-38 alpha kinase assay P1 (coupled spectrophotometric, 2 h pre-incubation)
Format: biochemical
STATED CONDITIONS: method P1 (2 h pre-incubation); read-out: P-38 Data
TEST READOUT: pIC50
Numbers only, as −log10 of the molar value.

Before answering, review these 3 worked examples.
| MOLECULE | TEST READOUT | MEAS VALUE |
| --- | --- | --- |
| CC(C)(C)c1cc(NC(=O)Nc2cccc(Cl)c2Cl)n(-c2ccc3c(c2)C(N)=NCC3)n1 [Example 129] | pIC50 | 6.89 |
| CC(C)(C)c1cc(NC(=O)Nc2cccc(Cl)c2Cl)n(-c2ccc3[nH]ncc3c2)n1 [Example 121] | pIC50 | 7.40 |
| CC(C)(C)c1cc(NC(=O)Nc2ccccc2)n(-c2cc(CC(=O)O)c3ccccc3c2)n1 [Example 301] | pIC50 | 6.80 |

Query: I have this molecule here, Cn1c(=O)c(-c2cccc(NC(=O)Nc3cc(C(C)(C)C)nn3-c3ccc4c(c3)CCN4S(C)(=O)=O)c2)cc2cncnc21 [Example 197] , and I need its recorded pIC50.
Result: 7.55
